The reported numbers originate from patent US10000501B2.

Listing: IC50 of selected compounds
Biological target: human HIF-PHD2 (Homo sapiens, UniProt Q9GZT9)
Construct: FLAG-tagged full length PHD2 expressed in and purified from baculovirus-infected Sf9 cells; FLAG; made in house; host or cells: baculovirus-infected Sf9 cells
Sequence (Q9GZT9 whole entry): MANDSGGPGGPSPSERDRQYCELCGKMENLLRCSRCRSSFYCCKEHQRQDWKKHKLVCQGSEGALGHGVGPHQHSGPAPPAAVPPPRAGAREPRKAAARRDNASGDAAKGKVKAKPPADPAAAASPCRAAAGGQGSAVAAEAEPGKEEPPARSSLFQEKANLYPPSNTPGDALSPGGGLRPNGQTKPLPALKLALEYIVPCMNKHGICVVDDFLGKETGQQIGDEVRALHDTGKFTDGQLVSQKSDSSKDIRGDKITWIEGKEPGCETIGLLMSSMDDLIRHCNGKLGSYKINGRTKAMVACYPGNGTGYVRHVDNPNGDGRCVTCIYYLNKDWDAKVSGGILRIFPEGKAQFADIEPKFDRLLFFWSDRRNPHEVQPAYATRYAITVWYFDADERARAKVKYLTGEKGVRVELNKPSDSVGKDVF
Assay: HIF-PHD2 inhibition assay (hydroxylation of HIF-1α peptide, time resolved fluorescence)
Assay type: biochemical
Conditions: FLAG-tagged full length PHD2; 0.2 μM 2-oxoglutarate, 0.5 μM HIF-1α peptide

compound: O=C(O)CNC(=O)c1c(O)c2c(n(Cc3nc(-c4ccccc4)cs3)c1=O)C1CCC2C1 (centres unmarked)
IC50: 61 nM
//
compound: O=C(O)CNC(=O)c1c(O)c2c(n(Cc3ccc(OC(F)(F)F)cc3)c1=O)CCOC2
IC50: 10.3 nM
//
compound: O=C(O)CNC(=O)c1c(O)c2c(n(Cc3ccc(Cl)cc3F)c1=O)CCOC2
IC50: 19.2 nM
//
compound: O=C(O)CNC(=O)c1c(O)c2c(n(CC3CCCCC3)c1=O)CCOC2
IC50: 76 nM
//
compound: O=C(O)CNC(=O)c1c(O)c2c(n(Cc3ncc(C(F)(F)F)cn3)c1=O)COCC2
IC50: 90.1 nM
//
compound: CC(C)c1ccc(Cn2c3c(c(O)c(C(=O)NCC(=O)O)c2=O)CCOC3)cc1
IC50: 42.2 nM
//
compound: O=C(O)CNC(=O)c1c(O)c2c(n(Cc3ccc(OC(F)(F)F)cc3)c1=O)COCC2
IC50: 24.1 nM
//
compound: CN1Cc2c(c(O)c(C(=O)NCC(=O)O)c(=O)n2Cc2ccc(F)cc2F)CC1=O
IC50: 28.7 nM

====

Molecular target: UniProtKB Q9GZT9

molecule: NC(=O)c1ccc(-c2ccc(Cn3c4c(c(O)c(C(=O)NCC(=O)O)c3=O)CCOC4)cc2)cc1
measurement-units: µM
IC50: 0.0078
//
molecule: Cc1cc(Cn2c3c(c(O)c(C(=O)NCC(=O)O)c2=O)COCC3)ccc1C#N
measurement-units: µM
IC50: 0.0145
//
molecule: O=C(O)CNC(=O)c1c(O)c2c(n(Cc3ccc(F)cc3F)c1=O)COCC2
measurement-units: µM
IC50: 0.0241
//
molecule: O=C(O)CNC(=O)c1c(O)c2c([nH]c1=O)CCOC2
measurement-units: µM
IC50: 0.0418
//
molecule: Cn1ccc(Cn2c3c(c(O)c(C(=O)NCC(=O)O)c2=O)COCC3)n1
measurement-units: µM
IC50: 0.0326
//
molecule: N#Cc1cccc(Cn2c3c(c(O)c(C(=O)NCC(=O)O)c2=O)CCOC3)c1
measurement-units: µM
IC50: 0.0352
//
molecule: O=C(O)CNC(=O)c1c(O)c2c(n(Cc3ccc(Cl)cc3F)c1=O)COCC2
measurement-units: µM
IC50: 0.0193
//
molecule: O=C(O)CNC(=O)c1c(O)c2c(n(Cc3ccc(-c4ccc(Cl)cc4)cc3)c1=O)COCC2
measurement-units: µM
IC50: 0.0135
//
molecule: O=C(O)CNC(=O)c1c(O)c2c(n(-c3ccc(OC(F)(F)F)cc3)c1=O)CCOC2
measurement-units: µM
IC50: 0.0988
//
molecule: O=C(O)CNC(=O)c1c(O)c2c(n(Cc3ccncc3)c1=O)COCC2
measurement-units: µM
IC50: 0.0304
//
molecule: N#Cc1ccc(Cn2c3c(c(O)c(C(=O)NCC(=O)O)c2=O)CCOC3)cc1
measurement-units: µM
IC50: 0.0218
//
molecule: O=C(O)CNC(=O)c1c(O)c2c(n(Cc3ccc(C(F)(F)F)cc3)c1=O)C1CCC2C1 (centres unmarked)
measurement-units: µM
IC50: 0.046
//
molecule: N#Cc1ccc(Cn2c3c(c(O)c(C(=O)NCC(=O)O)c2=O)COCC3)cc1F
measurement-units: µM
IC50: 0.016
//
molecule: O=C(O)CNC(=O)c1c(O)c2c(n(Cc3nc4ccccc4s3)c1=O)COCC2
measurement-units: µM
IC50: 0.0089
//
molecule: O=C(O)CNC(=O)c1c(O)c2c(n(Cc3ncc(C(F)(F)F)cn3)c1=O)CCOC2
measurement-units: µM
IC50: 0.0445
//
molecule: CN1Cc2c(c(O)c(C(=O)NCC(=O)O)c(=O)n2Cc2ccc(C#N)cc2F)CC1=O
measurement-units: µM
IC50: 0.0104
//
molecule: O=C(O)CNC(=O)c1c(O)c2c(n(Cc3csc(C(F)(F)F)n3)c1=O)CCOC2
measurement-units: µM
IC50: 0.0151
//
molecule: N#Cc1ccc(Cn2c3c(c(O)c(C(=O)NCC(=O)O)c2=O)CCOC3)c(F)c1
measurement-units: µM
IC50: 0.0144
//
molecule: CN1Cc2c(c(O)c(C(=O)NCC(=O)O)c(=O)n2Cc2ccc(S(C)(=O)=O)cc2)CC1=O
measurement-units: µM
IC50: 0.019
//
molecule: O=C(O)CNC(=O)c1c(O)c2c(n(Cc3ccn(-c4ccccc4)n3)c1=O)CCOC2
measurement-units: µM
IC50: 0.0121
//
molecule: O=C(O)CNC(=O)c1c(O)c2c(n(Cc3ccc(Cl)cc3)c1=O)COCC2
measurement-units: µM
IC50: 0.0502
//
molecule: NC(=O)c1ccc(Cn2c3c(c(O)c(C(=O)NCC(=O)O)c2=O)CCOC3)cc1
measurement-units: µM
IC50: 0.0306
//
molecule: CC(C)Oc1ccc(Cn2c3c(c(O)c(C(=O)NCC(=O)O)c2=O)COCC3)cc1
measurement-units: µM
IC50: 0.0205
//
molecule: CC(C)c1ccc(Cn2c3c(c(O)c(C(=O)NCC(=O)O)c2=O)COCC3)cc1
measurement-units: µM
IC50: 0.0125
//
molecule: O=C(O)CNC(=O)c1c(O)c2c(n(Cc3cc(F)c(F)cc3F)c1=O)COCC2
measurement-units: µM
IC50: 0.0265
//
molecule: CC(C)Oc1ccc(Cn2c3c(c(O)c(C(=O)NCC(=O)O)c2=O)CCOC3)cc1
measurement-units: µM
IC50: 0.0291
//
molecule: CS(=O)(=O)c1ccc(Cn2c3c(c(O)c(C(=O)NCC(=O)O)c2=O)CCOC3)cc1
measurement-units: µM
IC50: 0.0287
//
molecule: COc1ccc(Cn2c3c(c(O)c(C(=O)NCC(=O)O)c2=O)COCC3)cc1
measurement-units: µM
IC50: 0.0156
//
molecule: CC(C)(O)c1ccc(Cn2c3c(c(O)c(C(=O)NCC(=O)O)c2=O)COCC3)cc1
measurement-units: µM
IC50: 0.0499
